# Test system: Vero
# procedure-summary: Cytotoxicity against african green monkey Vero cells after 48 hrs by Neutral Red dye assay
# Format: cell-based
# assay-setup: chlorocebus sabaeus
Classification field. Basis: Activity. Definitions: small value (below 5 µM), mid value (5 µM to below 8 µM), large value (8 µM or more)

Example cases with answers are listed next.
Q. Kindly identify the class of "Fc1cccc(Sc2cc3ccccc3[n+](CCCCCC3CCCCC3)c2)c1.[I-]" .
A. small value

Q. Kindly identify the class of C[n+]1c2ccccc2cc2[n-]c3ccccc3c21 [CRYPTOLEPINE] .
A. large value

Q. Kindly identify the class of [I-].[O-][S+](c1ccc(C(F)(F)F)cc1)c1cc2ccccc2[n+](CCCCCc2ccccc2)c1 (stereo not given) .
A. large value

Continuing:
Q. Kindly identify the class of "COc1ccc(Sc2cc3ccccc3[n+](CCCCCC3CCCCC3)c2)cc1.[I-]" .
A. mid value

Q. Kindly identify the class of "Cc1ccc(Sc2cc3ccccc3[n+](CCCCCC3CCCCC3)c2)cc1.[I-]" .
A. mid value

Q. Kindly identify the class of "Clc1ccc(CSc2cc3ccccc3[n+](CCCCCC3CCCCC3)c2)cc1.[I-]" .
A. small value

Q. Kindly identify the class of "[I-].c1ccc(Sc2cc3ccccc3[n+](CCCCCC3CCCCC3)c2)cc1" .
A. large value
